measuredOn: CYP1A2 (Homo sapiens)
test: CYP inhibition in human liver microsomes
conditionInfo: human, human liver microsomes, probe phenacetin
propertyLabel: activity at 20 min, 5 µM (%)

* CC(=O)N1CCN(c2ccc(OCC3COC(Cn4ccnc4)(c4ccc(Cl)cc4Cl)O3)cc2)CC1 (stereo not shown) | 70.7

----------
test: Metabolic stability in liver microsomes
conditionInfo: rat, liver microsomes, pH 7.4
propertyLabel: remaining at 0.5 h, 10 μM (%)

- CCc1cc(Cl)c(OC)c(N2CCN(CC(O)CCNC(=O)c3cc4ccccc4[nH]3)CC2)c1 (stereo not shown): 87.1

----------
test: Metabolic stability in liver microsomes
conditionInfo: monkey, liver microsomes, pH 7.4
propertyLabel: remaining at 0.5 h, 10 μM (%)

* CCc1cc(Cl)c(OC)c(N2CCN(CC(O)CCNC(=O)c3cc4ccccc4[nH]3)CC2)c1 (stereo not shown) [R-VK4-116] | 60.1

----------
test: Metabolic stability in liver microsomes
conditionInfo: rat, liver microsomes, pH 7.4
propertyLabel: remaining at 0.5 h, 1 μM (%)

- CCc1cc(Cl)c(OC)c(N2CCN(CC(O)CCNC(=O)c3cc4ccccc4[nH]3)CC2)c1 (stereo not shown) [R-VK4-116]: 79.4

----------
test: Metabolic stability in liver microsomes
conditionInfo: rat, liver microsomes, pH 7.4
propertyLabel: remaining at 2 h, 1 μM

• CCc1cc(Cl)c(OC)c(N2CCN(CC(O)CCNC(=O)c3cc4ccccc4[nH]3)CC2)c1 (stereo not shown) = 37.5%

----------
Test system: CYP2B6
test: CYP induction, mRNA, primary cultured human hepatocytes
conditionInfo: primary cultured human hepatocytes, Fold Induction (CYP2B6 mRNA expression), hepatocyte Lot 399, 5 µM
propertyLabel: fold induction at 48 h, 5 µM

* CCc1cc(Cl)c(OC)c(N2CCN(CC(O)CCNC(=O)c3cc4ccccc4[nH]3)CC2)c1 (stereo not shown) | 1.2

----------
test: Plasma protein binding, Sephadex G-25 gel filtration
Assay type: in vitro ADME, human
conditionInfo: human, rat, dog, plasma, range over human, rat and dog plasma; read-out: bound to plasma proteins
propertyLabel: fraction unbound at 2 h

• CCc1cc(Cl)c(OC)c(N2CCN(CC(O)CCNC(=O)c3cc4ccccc4[nH]3)CC2)c1 (stereo not shown) [R-VK4-116] = 0.07 to 0.17

----------
test: Metabolic stability in liver microsomes
conditionInfo: rat, heat-inactivated liver microsomes, pH 7.4
propertyLabel: remaining at 2 h, 10 μM

• CCc1cc(Cl)c(OC)c(N2CCN(CC(O)CCNC(=O)c3cc4ccccc4[nH]3)CC2)c1 (stereo not shown) = 95.4%

----------
measuredOn: OCT2 (Homo sapiens, UniProt O15244)
Construct: expressed in transfected cells; host or cells: MDCK-II cells
Sequence (O15244 whole entry): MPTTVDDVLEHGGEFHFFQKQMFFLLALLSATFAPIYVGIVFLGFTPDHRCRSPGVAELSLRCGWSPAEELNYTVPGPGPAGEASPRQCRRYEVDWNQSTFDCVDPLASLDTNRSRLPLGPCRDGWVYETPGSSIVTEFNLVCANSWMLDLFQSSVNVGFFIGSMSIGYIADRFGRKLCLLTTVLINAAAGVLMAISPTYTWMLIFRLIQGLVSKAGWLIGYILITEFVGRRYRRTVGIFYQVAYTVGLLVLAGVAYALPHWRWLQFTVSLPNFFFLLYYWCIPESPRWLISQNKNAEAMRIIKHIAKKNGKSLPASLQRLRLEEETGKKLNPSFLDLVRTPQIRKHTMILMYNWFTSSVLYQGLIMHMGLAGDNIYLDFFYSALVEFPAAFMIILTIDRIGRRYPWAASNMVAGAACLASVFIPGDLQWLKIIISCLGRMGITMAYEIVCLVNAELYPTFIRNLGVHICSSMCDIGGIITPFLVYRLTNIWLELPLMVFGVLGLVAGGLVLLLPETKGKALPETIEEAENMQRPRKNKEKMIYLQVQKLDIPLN
test: Transporter mediated assay (substrate/inhibitor), MDCK-II cells
Assay type: in vitro ADME
conditionInfo: human, polarized monolayer of MDCK-II cells expressing OCT2; OCT2, No BSA, 1000 μM
propertyLabel: inhibition at 1000 µM (%)

- C=C[C@H]1C[N@@]2CC[C@H]1C[C@@H]2[C@@H](O)c1ccnc2ccc(OC)cc12 [quinidine, reference compound]: 100

----------
measuredOn: UniProt:P78362
Sequence (P78362 whole entry): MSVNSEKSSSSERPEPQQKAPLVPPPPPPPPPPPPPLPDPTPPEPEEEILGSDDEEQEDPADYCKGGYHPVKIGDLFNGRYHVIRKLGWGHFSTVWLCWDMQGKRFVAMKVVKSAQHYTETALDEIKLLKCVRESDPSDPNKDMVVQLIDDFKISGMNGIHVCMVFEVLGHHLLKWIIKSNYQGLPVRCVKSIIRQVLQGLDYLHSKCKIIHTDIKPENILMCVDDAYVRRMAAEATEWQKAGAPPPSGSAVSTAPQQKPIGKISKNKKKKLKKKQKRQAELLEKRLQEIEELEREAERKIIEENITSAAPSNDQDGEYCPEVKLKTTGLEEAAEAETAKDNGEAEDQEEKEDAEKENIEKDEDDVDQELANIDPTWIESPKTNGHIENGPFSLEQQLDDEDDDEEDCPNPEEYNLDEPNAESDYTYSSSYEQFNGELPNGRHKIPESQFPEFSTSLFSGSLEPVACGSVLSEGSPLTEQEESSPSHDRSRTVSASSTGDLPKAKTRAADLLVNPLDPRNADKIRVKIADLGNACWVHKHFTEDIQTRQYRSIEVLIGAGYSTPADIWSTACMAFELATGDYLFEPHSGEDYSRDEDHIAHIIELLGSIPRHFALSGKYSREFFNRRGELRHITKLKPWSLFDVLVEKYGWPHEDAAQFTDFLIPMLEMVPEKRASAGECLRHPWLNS
propertyLabel: Kd

* CCc1cc(Cl)c(OC)c(N2CCN(CC(O)CCNC(=O)c3cc4ccccc4[nH]3)CC2)c1 (stereo not shown) | > 10 µM

----------
measuredOn: CYP2D6 (Homo sapiens, UniProt P10635)
Sequence (P10635 whole entry): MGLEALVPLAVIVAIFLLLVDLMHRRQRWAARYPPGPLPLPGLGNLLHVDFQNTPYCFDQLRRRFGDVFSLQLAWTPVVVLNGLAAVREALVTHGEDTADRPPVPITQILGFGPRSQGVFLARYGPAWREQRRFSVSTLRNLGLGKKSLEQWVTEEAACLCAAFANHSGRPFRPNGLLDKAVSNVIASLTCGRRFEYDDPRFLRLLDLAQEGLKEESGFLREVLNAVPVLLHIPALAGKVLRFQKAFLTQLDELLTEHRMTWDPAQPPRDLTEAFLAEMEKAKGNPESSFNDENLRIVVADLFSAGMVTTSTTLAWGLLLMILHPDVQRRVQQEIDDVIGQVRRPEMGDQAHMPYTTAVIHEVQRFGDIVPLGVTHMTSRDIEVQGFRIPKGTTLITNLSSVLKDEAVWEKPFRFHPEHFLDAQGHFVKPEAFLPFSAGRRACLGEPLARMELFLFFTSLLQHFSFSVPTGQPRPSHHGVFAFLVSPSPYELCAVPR
test: CYP inhibition in human liver microsomes
conditionInfo: human, human liver microsomes, probe bufuralol
propertyLabel: activity at 20 min, 30 µM (%)

• CCc1cc(Cl)c(OC)c(N2CCN(CC(O)CCNC(=O)c3cc4ccccc4[nH]3)CC2)c1 (stereo not shown) = 83.1

----------
measuredOn: CYP1A2 (Homo sapiens, UniProt P05177)
Sequence (P05177 whole entry): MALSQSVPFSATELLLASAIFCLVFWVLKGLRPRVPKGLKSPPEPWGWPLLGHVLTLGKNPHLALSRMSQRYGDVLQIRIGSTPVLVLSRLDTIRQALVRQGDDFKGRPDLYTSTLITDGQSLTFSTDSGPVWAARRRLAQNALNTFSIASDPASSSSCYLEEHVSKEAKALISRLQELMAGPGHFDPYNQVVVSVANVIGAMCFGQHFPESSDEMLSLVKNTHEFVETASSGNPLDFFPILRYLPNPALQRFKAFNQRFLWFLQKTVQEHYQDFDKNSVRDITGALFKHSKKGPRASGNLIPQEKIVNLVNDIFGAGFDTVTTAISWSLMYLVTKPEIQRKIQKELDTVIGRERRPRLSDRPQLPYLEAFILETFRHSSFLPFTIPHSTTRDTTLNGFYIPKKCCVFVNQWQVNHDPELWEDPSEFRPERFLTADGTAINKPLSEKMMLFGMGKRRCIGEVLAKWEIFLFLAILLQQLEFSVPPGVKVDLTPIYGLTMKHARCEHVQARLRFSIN
test: CYP inhibition in human liver microsomes
conditionInfo: human, human liver microsomes, probe phenacetin
propertyLabel: activity at 20 min, 0.1 µM (%)

- CCc1cc(Cl)c(OC)c(N2CCN(CC(O)CCNC(=O)c3cc4ccccc4[nH]3)CC2)c1 (stereo not shown) [R-VK4-116]: 93.7

----------
measuredOn: hERG (Homo sapiens, UniProt Q12809)
Sequence (Q12809 whole entry): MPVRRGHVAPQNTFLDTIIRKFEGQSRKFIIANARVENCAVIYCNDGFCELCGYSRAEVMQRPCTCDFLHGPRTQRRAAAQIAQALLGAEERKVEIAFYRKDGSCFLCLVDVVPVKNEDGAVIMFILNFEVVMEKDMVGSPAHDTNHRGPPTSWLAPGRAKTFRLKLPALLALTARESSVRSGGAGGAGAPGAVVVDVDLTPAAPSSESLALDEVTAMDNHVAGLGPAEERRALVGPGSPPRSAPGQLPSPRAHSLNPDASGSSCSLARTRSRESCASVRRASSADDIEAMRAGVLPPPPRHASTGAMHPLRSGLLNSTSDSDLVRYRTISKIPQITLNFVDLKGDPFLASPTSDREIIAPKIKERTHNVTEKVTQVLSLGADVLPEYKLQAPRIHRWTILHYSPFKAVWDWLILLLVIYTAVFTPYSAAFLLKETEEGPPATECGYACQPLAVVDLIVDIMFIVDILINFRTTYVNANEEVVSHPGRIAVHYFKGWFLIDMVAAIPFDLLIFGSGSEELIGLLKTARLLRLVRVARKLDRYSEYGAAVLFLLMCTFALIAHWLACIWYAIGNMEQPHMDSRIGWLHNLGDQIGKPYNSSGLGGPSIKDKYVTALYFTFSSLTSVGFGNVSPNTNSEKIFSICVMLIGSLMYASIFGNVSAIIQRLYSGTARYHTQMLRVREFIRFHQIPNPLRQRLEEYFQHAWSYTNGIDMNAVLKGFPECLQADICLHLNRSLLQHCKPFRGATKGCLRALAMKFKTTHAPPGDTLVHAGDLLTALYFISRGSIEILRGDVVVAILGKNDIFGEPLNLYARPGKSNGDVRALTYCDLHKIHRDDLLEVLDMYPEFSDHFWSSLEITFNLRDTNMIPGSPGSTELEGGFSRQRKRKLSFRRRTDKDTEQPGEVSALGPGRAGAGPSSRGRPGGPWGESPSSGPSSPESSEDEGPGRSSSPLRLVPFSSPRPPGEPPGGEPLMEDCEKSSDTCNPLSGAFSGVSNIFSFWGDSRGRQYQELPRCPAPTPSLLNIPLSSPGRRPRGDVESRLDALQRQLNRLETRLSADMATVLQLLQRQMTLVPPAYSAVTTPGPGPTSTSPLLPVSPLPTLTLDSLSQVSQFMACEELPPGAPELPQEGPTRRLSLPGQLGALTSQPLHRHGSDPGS
test: CiPA IonChannelProfiler Cardiac Panel, QPatch
conditionInfo: 100 μM
propertyLabel: inhibition at 100 µM (%)

• CCc1cc(Cl)c(OC)c(N2CCN(CC(O)CCNC(=O)c3cc4ccccc4[nH]3)CC2)c1 (stereo not shown) = 82.3

----------
System: CYP1A2 mRNA
test: CYP induction, mRNA, primary cultured human hepatocytes
Type: in vitro ADME
conditionInfo: Lot 399, 3 μM, read-out: CYP1A2 mRNA Fold Induction (fold of vehicle control)
propertyLabel: fold induction at 48 h, 3 µM

* CCc1cc(Cl)c(OC)c(N2CCN(CC(O)CCNC(=O)c3cc4ccccc4[nH]3)CC2)c1 (stereo not shown) | 1.9

----------
measuredOn: CYP1A2 (Homo sapiens)
test: CYP inhibition in human liver microsomes
conditionInfo: human, human liver microsomes, probe phenacetin
propertyLabel: activity at 20 min, 0.3 µM (%)

- CCc1cc(Cl)c(OC)c(N2CCN(CC(O)CCNC(=O)c3cc4ccccc4[nH]3)CC2)c1 (stereo not shown): 87.7
